Target: C5a receptor (Homo sapiens)
Construct: endogenous in cells; host or cells: U937 cells differentiated with 1 mM dibutyryl cAMP
Sequence (P21730 1-350): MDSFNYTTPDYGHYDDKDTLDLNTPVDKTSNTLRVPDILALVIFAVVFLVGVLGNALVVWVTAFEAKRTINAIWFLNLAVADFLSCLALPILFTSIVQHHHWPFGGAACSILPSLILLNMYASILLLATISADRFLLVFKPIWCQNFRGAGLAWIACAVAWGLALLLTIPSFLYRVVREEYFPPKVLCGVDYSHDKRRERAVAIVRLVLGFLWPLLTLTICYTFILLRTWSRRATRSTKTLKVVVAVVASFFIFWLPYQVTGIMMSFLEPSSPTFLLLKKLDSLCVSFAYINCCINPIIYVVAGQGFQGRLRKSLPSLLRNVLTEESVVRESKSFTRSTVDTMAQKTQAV
Experiment: standard assay of C5a receptor mediated calcium mobilization
Type: cell-based
Conditions: Table I; asterisk = tested in C5a receptor mediated calcium mobilization assay; read-out: Ca2+ Mob.
pKi: −log10 of the molar value.
RESULT TYPE: pKi

# STRUCTURE AS SMILES, pKi
rows = [
    ("Cc1cccc(CN(C(=O)c2c(C)cccc2-c2ccccc2)C2Cc3ccccc3C2)c1", "> 6.00"),
]

-- ask // lookup pKi for O=C(c1c(O)cccc1-c1ccccc1)N(Cc1ccccc1)C1Cc2ccccc2C1
-- reply > 6.00

-- ask Let us now turn to COc1cccc(-c2ccccc2C(=O)N(Cc2ccc(C)cc2)C2Cc3ccccc3C2)c1
-- reply > 6.00
